Data origin, for the record: ChEMBL document CHEMBL4706476

- Tested on: HCT-116
- test-protocol: cells
- test-context: Homo sapiens, HCT-116, 72 h
- Description: Antiproliferative activity against human HCT-116 cells assessed as reduction in cell viability incubated for 72 hrs by MTT assay
Reported values of IC50 for individual entries
Please reply with the bare figure in nM and do not write the unit itself.

CC(C)c1cc(C(=O)N2CCc3nc(OCCN4CCOCC4)ncc3C2)c(O)cc1O ... 1060
Cc1ncc2c(n1)CCN(C(=O)c1cc(C(C)C)c(O)cc1O)C2 ... 1150

### Prompt What does the data say about its IC50? Entry: "CCN(CC)CCOc1ncc2c(n1)CCN(C(=O)c1cc(C(C)C)c(O)cc1O)C2"
### Response 890

### Prompt What does the data say about its IC50? Entry: "CCCCOc1ncc2c(n1)CCN(C(=O)c1cc(C(C)C)c(O)cc1O)C2"
### Response 1270

### Prompt What does the data say about its IC50? Entry: "Cc1ncc2c(n1)CCN(C(=O)c1cc(Br)c(O)cc1O)C2"
### Response 1530

### Prompt What does the data say about its IC50? Entry: "CC(C)Oc1ncc2c(n1)CCN(C(=O)c1cc(C(C)C)c(O)cc1O)C2"
### Response 1240

### Prompt What does the data say about its IC50? Entry: "CC(C)c1cc(C(=O)N2CCc3nc(OCCN4CCCCC4)ncc3C2)c(O)cc1O"
### Response 780

### Prompt What does the data say about its IC50? Entry: "CCOc1ncc2c(n1)CCN(C(=O)c1cc(C(C)C)c(O)cc1O)C2"
### Response 760

### Prompt What does the data say about its IC50? Entry: "COCCOc1nc2c(c(OC(C)C)n1)CN(C(=O)c1cc(C(C)C)c(O)cc1O)CC2"
### Response 740

### Prompt What does the data say about its IC50? Entry: "CC(C)COc1ncc2c(n1)CCN(C(=O)c1cc(C(C)C)c(O)cc1O)C2"
### Response 1230

### Prompt What does the data say about its IC50? Entry: "CC(C)c1cc(C(=O)N2CCc3nc(OCCCN(C)C)ncc3C2)c(O)cc1O"
### Response 920

### Prompt What does the data say about its IC50? Entry: "CC(C)c1cc(C(=O)N2CCc3nc(OC4CCOCC4)ncc3C2)c(O)cc1O"
### Response 600

### Prompt What does the data say about its IC50? Entry: CC(C)c1cc(C(=O)N2Cc3ccc(CN4CCN(C)CC4)cc3C2)c(O)cc1O [ONALESPIB]
### Response 70

### Prompt What does the data say about its IC50? Entry: "Cc1ncc2c(n1)CN(C(=O)c1cc(C(C)C)c(O)cc1O)C2"
### Response 1630

### Prompt What does the data say about its IC50? Entry: "COCCOc1nc2c(c(OC)n1)CN(C(=O)c1cc(C(C)C)c(O)cc1O)CC2"
### Response 250

### Prompt What does the data say about its IC50? Entry: "CCNc1nc(OCCOC)nc2c1CN(C(=O)c1cc(C(C)C)c(O)cc1O)CC2"
### Response 140

### Prompt What does the data say about its IC50? Entry: "CNc1ncc2c(n1)CCN(C(=O)c1cc(C(C)C)c(O)cc1O)C2"
### Response 740

### Prompt What does the data say about its IC50? Entry: "CCCNc1nc(OCCOC)nc2c1CN(C(=O)c1cc(C(C)C)c(O)cc1O)CC2"
### Response 400

### Prompt What does the data say about its IC50? Entry: "CC(C)c1cc(C(=O)N2CCc3nc(OCCN(C)C)ncc3C2)c(O)cc1O"
### Response 2380

### Prompt What does the data say about its IC50? Entry: "Cc1ncc2c(n1)CN(C(=O)c1cc(Cl)c(O)cc1O)C2"
### Response 10700

### Prompt What does the data say about its IC50? Entry: "CCN(CC)c1nc(OCCOC)nc2c1CN(C(=O)c1cc(C(C)C)c(O)cc1O)CC2"
### Response 3570
